# Tested on: S. marcescens IFO 12648
# Experimental Protocol: Minimal inhibitory concentration (M.I.C.), agar dilution method
# Format: cell-based, Serratia marcescens
# Experimental Setup: TSA, inoculum 10^7 /ml
For each record, write down the corresponding minimal inhibitory concentration (M.I.C.).

Use the examples below as a reference point.
{"columns": ["Molecule", "Target Or System", "Observed Value"],
 "data": [
  ["CCCCNC(=O)O/N=C(\\C(=O)NC1C(=O)N2C(C(=O)O)=C(C)CSC12)c1csc(=N)[nH]1 (stereo not shown) [Example II - 23]", "S. marcescens IFO 12648", 100],
  ["CC1=C(C(=O)O)N2C(=O)C(NC(=O)/C(=N\\OC(=O)NC(C)C)c3csc(=N)[nH]3)C2SC1 (stereo not shown) [Example II - 19]", "S. marcescens IFO 12648", 100],
  ["CNC(=O)O/N=C(\\C(=O)NC1C(=O)N2C(C(=O)O)=C(CSc3nnnn3C)CSC12)c1csc(=N)[nH]1 (stereo not shown) [Example II - 4]", "S. marcescens IFO 12648", 1.56]
]}

Let us examine a further case.
stdin: I'd like to know its minimal inhibitory concentration (M.I.C.). The molecule in question is CCCCNC(=O)O/N=C(\C(=O)NC1C(=O)N2C(C(=O)O)=C(COC(N)=O)CSC12)c1csc(=N)[nH]1 (stereo not shown) [Example II - 21]
stdout: 6.25
